Attribute measured: melting point

Solved cases below.
CCC(CC)O[C@@H]1C=C(C(=O)O)C[C@H](NCc2ccc(OCc3ccc(C(=O)O)c(OC)c3)cc2)[C@H]1NC(C)=O [Compound 10c] ... 190.5 to 195.1 °C (dec.)
CCC(CC)O[C@@H]1C=C(C(=O)O)C[C@H](NCc2ccc(OCc3ccccc3B(O)O)cc2)[C@H]1NC(C)=O [Compound 1c] ... 146.3 to 150.5 °C (dec.)
CCC(CC)O[C@@H]1C=C(C(=O)O)C[C@H](NCc2ccc(OCc3ccc(C(=O)O)cc3OC)cc2)[C@H]1NC(C)=O [Compound 9c] ... 171.2 to 175.7 °C (dec.)
CCC(CC)O[C@@H]1C=C(C(=O)O)C[C@H](NCc2ccc(OCc3cccc(S(N)(=O)=O)c3)cc2)[C@H]1NC(C)=O [Compound 16c] ... 193.2 to 198.1 °C (dec.)
CCC(CC)O[C@@H]1C=C(C(=O)O)C[C@H](NCc2ccc(OCc3ccc(B(O)O)cc3)cc2)[C@H]1NC(C)=O [Compound 3c] ... 168.3 to 172.1 °C (dec.)

From here, focus on the item given below.
Lookup: # query: melting point of entry CCC(CC)O[C@@H]1C=C(C(=O)O)C[C@H](NCc2ccc(OCc3ccccc3C(=O)O)cc2)[C@H]1NC(C)=O [Compound 4c]
Found: 177.1 to 178.9 °C
